The reported numbers originate from ChEMBL document CHEMBL1177651.

# studyTarget: Mast/stem cell growth factor receptor Kit (Homo sapiens)
# Sequence (P10721 whole entry): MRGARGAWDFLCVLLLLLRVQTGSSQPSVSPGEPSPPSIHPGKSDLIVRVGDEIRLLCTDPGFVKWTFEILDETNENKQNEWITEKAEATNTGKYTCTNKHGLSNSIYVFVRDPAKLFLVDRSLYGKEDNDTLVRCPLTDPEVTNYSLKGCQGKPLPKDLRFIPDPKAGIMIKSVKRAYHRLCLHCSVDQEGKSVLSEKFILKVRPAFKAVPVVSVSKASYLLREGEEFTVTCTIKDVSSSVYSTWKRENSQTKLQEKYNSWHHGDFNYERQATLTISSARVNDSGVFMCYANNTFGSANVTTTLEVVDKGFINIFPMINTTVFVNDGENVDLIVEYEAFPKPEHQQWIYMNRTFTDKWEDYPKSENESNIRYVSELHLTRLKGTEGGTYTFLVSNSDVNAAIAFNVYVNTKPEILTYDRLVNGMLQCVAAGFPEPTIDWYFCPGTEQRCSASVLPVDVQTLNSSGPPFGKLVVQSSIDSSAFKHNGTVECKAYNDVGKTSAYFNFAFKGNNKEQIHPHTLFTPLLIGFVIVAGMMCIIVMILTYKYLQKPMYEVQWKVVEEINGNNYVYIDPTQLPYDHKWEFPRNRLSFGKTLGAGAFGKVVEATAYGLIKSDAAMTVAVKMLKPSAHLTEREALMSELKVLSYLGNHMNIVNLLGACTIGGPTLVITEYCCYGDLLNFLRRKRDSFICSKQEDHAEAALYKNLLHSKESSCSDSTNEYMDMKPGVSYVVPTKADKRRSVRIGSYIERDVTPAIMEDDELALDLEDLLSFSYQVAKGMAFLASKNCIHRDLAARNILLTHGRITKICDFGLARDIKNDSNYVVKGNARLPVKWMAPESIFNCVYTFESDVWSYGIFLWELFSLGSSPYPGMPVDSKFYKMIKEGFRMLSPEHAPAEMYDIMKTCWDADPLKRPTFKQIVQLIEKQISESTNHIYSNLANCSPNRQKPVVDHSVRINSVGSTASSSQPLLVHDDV
# procedureDetails: Inhibition of cKIT at 0.1 uM
Decision: inhibition >= 30% yields satisfied, all other cases yield not satisfied.

Q: Quick check, inhibition >= 30%? O=C(Nc1ccccc1)Nc1ccc2c(c1)NC(=O)/C2=C/c1ccc(Cl)c(Cl)c1
A: not satisfied

Q: Queued: COc1ccc(NC(=O)Nc2cccc3c2NC(=O)/C3=C\c2ccsc2)cc1
A: not satisfied

Q: Queued: COc1ccc(NC(=O)Nc2ccc3c(c2)NC(=O)/C3=C/c2ccc(-c3cccc([N+](=O)[O-])c3)o2)cc1
A: satisfied

Q: Queued: O=C(Nc1ccc(Cl)cc1)Nc1ccc2c(c1)/C(=C\c1ccccc1)C(=O)N2
A: not satisfied

Q: Queued: COc1ccc(NC(=O)Nc2ccc3c(c2)NC(=O)/C3=C\c2ccc(O)c(OC)c2)cc1
A: satisfied

Q: Queued: O=C(Nc1ccccc1)Nc1ccc2c(c1)NC(=O)/C2=C\c1ccc([N+](=O)[O-])cc1
A: not satisfied

Q: Queued: COc1ccc(NC(=O)Nc2ccc3c(c2)NC(=O)/C3=C\c2ccsc2)cc1
A: satisfied

Q: Queued: CCN(CC)CCNC(=O)c1c(C)[nH]c(/C=C2\C(=O)Nc3ccc(F)cc32)c1C
A: satisfied

Q: Queued: COc1ccc(NC(=O)Nc2cccc3c2NC(=O)/C3=C\c2[nH]c(C)c(CC(=O)O)c2C)cc1
A: not satisfied

Q: Queued: O=C(Nc1ccccc1)Nc1ccc2c(c1)NC(=O)/C2=C/c1ccc(-c2cccc([N+](=O)[O-])c2)o1
A: not satisfied

Q: Queued: COc1ccc(NC(=O)Nc2ccc3c(c2)/C(=C\c2ccccc2)C(=O)N3)cc1
A: not satisfied

Q: Queued: O=C(Nc1ccc(Cl)cc1)Nc1ccc2c(c1)NC(=O)/C2=C/c1ccc(-c2cccc([N+](=O)[O-])c2)o1
A: satisfied

Q: Queued: Cc1[nH]c(/C=C2\C(=O)Nc3ccc(NC(=O)Nc4ccccc4)cc32)c(C)c1-c1ccccc1
A: not satisfied

Q: Queued: COc1ccc(NC(=O)Nc2ccc3c(c2)NC(=O)/C3=C\c2ccccn2)cc1
A: not satisfied
